molecular target: E. coli DdlB enzyme (D-alanine:D-alanine ligase) (Escherichia coli, UniProt P07862); construct: made in house; host or cells: E. coli; experiment: biochemical; conditions: residual activity; tested concentration 1.7 mM; read-out: DdlB RA
Here the recorded remaining activity at 1700 µM is given for each entry.

>  <compound>
O=C(c1ccco1)N1CCCCC1c1nnc(C2CC2)[nH]1 (stereo not shown)

>  <units>
%

>  <remaining activity at 1700 µM>
90

$$$$
>  <compound>
Cc1cccc(CNC(=O)c2ccc3cccc(O)c3n2)c1

>  <units>
%

>  <remaining activity at 1700 µM>
94

$$$$
>  <compound>
COc1cccc(NC2=NS(=O)(=O)c3ccccc32)c1

>  <units>
%

>  <remaining activity at 1700 µM>
50

$$$$
>  <compound>
O=C(N/N=C/c1ccc2cccc(O)c2n1)c1ccncc1

>  <units>
%

>  <remaining activity at 1700 µM>
71

$$$$
>  <compound>
O=C(Nc1ccc(Cl)cc1)Nc1ccccc1C(=O)O

>  <units>
%

>  <remaining activity at 1700 µM>
119

$$$$
>  <compound>
Cc1nnc(C2CCCCN2C(=O)NC2CCCCC2)[nH]1 (stereo not shown)

>  <units>
%

>  <remaining activity at 1700 µM>
77

$$$$
>  <compound>
COC(=O)c1cc2occc2n1Cc1ccccc1Cl

>  <units>
%

>  <remaining activity at 1700 µM>
82

$$$$

These data points were gathered from paper PMC9718554.
